Data origin: paper PMC9454246

molecular target: WT PqsE (Pseudomonas aeruginosa); details: read-out: BB562 Binding Kapp, 2 µM MnCl2, two independent experiments in triplicate
measurement.kind: Kd
Units required after the number.

q: I have this compound here, O=C(NCCCn1cc(-c2ccc(NC(=O)c3cccc4cn[nH]c34)cc2)nn1)c1ccc2c(c1)C(=O)OC21c2ccc(O)cc2Oc2cc(O)ccc21 [BB562] , and I need its recorded Kd.
a: 416 nM

====

target: PqsE (Pseudomonas aeruginosa, UniProt P20581); assay: Competitive fluorescence polarization with the BB562 active site probe; conditions: competition with BB562 active site probe for binding to PqsE; one experiment performed in triplicate
Sequence (P20581 whole entry): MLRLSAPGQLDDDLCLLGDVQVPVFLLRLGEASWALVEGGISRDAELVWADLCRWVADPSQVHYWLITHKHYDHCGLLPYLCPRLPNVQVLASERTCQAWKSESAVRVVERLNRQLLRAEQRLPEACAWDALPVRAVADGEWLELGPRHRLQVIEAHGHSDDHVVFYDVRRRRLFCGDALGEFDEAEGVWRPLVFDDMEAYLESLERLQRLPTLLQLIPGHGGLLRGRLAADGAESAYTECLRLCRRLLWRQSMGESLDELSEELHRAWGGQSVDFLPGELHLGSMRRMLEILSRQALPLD
measurement.kind: EC50 (nM)
Give just the numeric value; nM need not be written.

>>> observed_measurement("O=C(NCc1cnccn1)Nc1ccc(NC(=O)c2cccc3cn[nH]c23)cc1 [BB582]")
302

q: I have this compound here, CC(C)(C)CNC(=O)Nc1ccc(NC(=O)c2cccc3cn[nH]c23)cc1 [BB584] , and I need its recorded EC50.
a: 34

q: I have this compound here, CC(CNC(=O)Nc1ccc(NC(=O)c2cccc3cn[nH]c23)cc1)N1CCOCC1 (stereo not drawn) [BB588] , and I need its recorded EC50.
a: 290

q: I have this compound here, O=C(Nc1cccc(-c2ccn[nH]2)c1)c1cccc2cn[nH]c12 [BB391] , and I need its recorded EC50.
a: 160

q: I have this compound here, CCC(C)(CNC(=O)Nc1ccc(NC(=O)c2cccc3cn[nH]c23)nc1)N1CCOCC1 (stereo not drawn) [BB589] , and I need its recorded EC50.
a: 608

q: I have this compound here, CCC(C)(CNC(=O)Nc1ccc(NC(=O)c2cccc3cn[nH]c23)cc1)N1CCOCC1 (stereo not drawn) [BB580] , and I need its recorded EC50.
a: 99

q: I have this compound here, O=C(NCc1ccccc1)Nc1ccc(NC(=O)c2cccc3cn[nH]c23)cc1 [BB583] , and I need its recorded EC50.
a: 71
